system under test: HparOBP20 (Holotrichia parallela)
Sequence (A0A0G2YKL4 entry or part of it): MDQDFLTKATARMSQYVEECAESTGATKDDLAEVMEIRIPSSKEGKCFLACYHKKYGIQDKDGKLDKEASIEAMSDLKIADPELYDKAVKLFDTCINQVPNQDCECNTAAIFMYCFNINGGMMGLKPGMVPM
method: Fluorescence competitive binding assay with 1-NPN probe, recombinant HparOBP20
conditions: calculated from IC50, Ki = [IC50]/(1+[1-NPN]/K1-NPN); read-out: Ki, HparOBP20
value kind: Ki (µM)

>>> value_reported("CCCCCCCCCCCCCCC [Pentadecane]")
13.8
>>> value_reported("CCC/C=C/COC(C)=O [(E)-2-Hexenyl acetate]")
23.3
>>> value_reported("CC/C=C\\CCOC(C)=O [(Z)-3-Hexenyl acetate]")
18.5
>>> value_reported("CCCCCCCCCCCC [Dodecane]")
40.6
>>> value_reported("Cn1cccc1 [1-Methylpyrrole]")
21.9
>>> value_reported("C=C(C)[C@H]1CC=C(C)CC1 [(R)-(+)-Limonene]")
24
>>> value_reported("CCCCCCCCO [1-Octanol]")
25.3
>>> value_reported("CCCCC=O [Valeraldehyde]")
26.1
